I'd be grateful if you could share measured Ki for these entries.

q: Requested read-out Ki, target or system cAMP and cAMP-inhibited cGMP 3',5'-cyclic phosphodiesterase 10A (Homo sapiens), entry `c1cnc2c(c1)CN(c1ncccc1-c1ccc(OCc3ccc4ccccc4n3)cc1)CC2`
a: < 1 µM

q: Requested read-out Ki, target or system cAMP and cAMP-inhibited cGMP 3',5'-cyclic phosphodiesterase 10A (Homo sapiens), entry COC(=O)NC1CCCN(c2nc(-c3cccc(-c4cccnc4OC)c3)nc3cnccc23)C1 (stereo not drawn)
a: < 1 µM

q: Requested read-out Ki, target or system cAMP and cAMP-inhibited cGMP 3',5'-cyclic phosphodiesterase 10A (Homo sapiens), entry `c1cc(-c2nc(OCc3ccncc3)c3ccncc3n2)cc(-c2ncco2)c1`
a: < 1 µM
